Where do the numbers come from? From patent US20230125550A1.

# ASSAYED TARGET: T1, recombinant human CD123-Fc (human, UniProt P26951 19-305)
# T1 construct: not shown: Fc part of CD123-Fc
# T1 sequence: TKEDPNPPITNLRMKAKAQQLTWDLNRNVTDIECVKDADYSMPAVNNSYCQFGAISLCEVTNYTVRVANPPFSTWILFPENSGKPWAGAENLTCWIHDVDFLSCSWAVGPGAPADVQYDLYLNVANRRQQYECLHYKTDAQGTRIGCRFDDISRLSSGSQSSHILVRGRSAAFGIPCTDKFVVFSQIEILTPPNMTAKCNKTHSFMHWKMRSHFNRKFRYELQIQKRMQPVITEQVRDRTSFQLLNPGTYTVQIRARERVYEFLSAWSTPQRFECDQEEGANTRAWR
# ASSAY OVERVIEW: phage ELISA, captured CD123-Fc
# Excerpt: Individual colonies containing phagemid from BCMA panning output were picked and phage were rescued in 96-well format using VCSM13 helper phage following standard protocols. […] Binding was detected using an HRP-conjugated anti-M13 antibody and the ELISA ratio for each sequence is reported as the absorbance at 450 nm for target (i.e., BCMA-Fc, CD123-Fc, AFP, or AFP123) divided by that for IgG1-Fc averaged across all screened wells containing that clone.
Label scheme for ELISA_avg: lower than 5 ratio A450 target/IgG1-Fc is False, 5 ratio A450 target/IgG1-Fc and above is True.

API: above_or_equal(metric=ELISA_avg, cutoff=5 ratio A450 target/IgG1-Fc) for item SEQ ID NO: 503 (designed binder, D domain, on phage) MGSWHWFKIVLADIKDGLEALGGSEAELAYFETTIADFEMDLHHYKGKGNPEVEALRKEAAAIRDELQAYRHN
False

Also check SEQ ID NO: 543 (designed binder, D domain, on phage) MGSWEEFDVRLDAIFNRLWALGGSEAELAEFEFDIAWFEMDLQEYKGKGNPEVEALFDEAEAITNELVAYRHN
False

Again, but for SEQ ID NO: 480 (designed binder, D domain, on phage) MGSWEWFKSDLASIKWELEALGGSEAELAWFEHDIAEFEEDLQWYKGKGNPEVEALRKEAAAIRDELQAYRHN
True

Here is the next binder: SEQ ID NO: 462 (designed binder, D domain, on phage) MGSWVYFKDELADIKDFLEALGGSEAELAEFEEDIATFEYDLQWYKGKGNPEVEALRKEAAAIRDELQAYRHN
False

What do you get for SEQ ID NO: 448 (designed binder, D domain, on phage) MGSWTFFKNDLAEIKDWLEALGGSEAELADFEWDIAEFEYSLQEYKGKGNPEVEALRKEAAAIRDELQAYRHN ?
False

How about SEQ ID NO: 483 (designed binder, D domain, on phage) MGSWSDFKDDLAEIKMILEALGGSEAELAYFENDIAWFEDDLQEYKGKGNPEVEALRKEAAAIRDELQAYRHN ?
False

Same read-out for SEQ ID NO: 556 (designed binder, D domain, on phage) MGSWREFDQRLWAIDWRLEALGGSEAELAMFEWMIATFEDDLQWYKGKGNPEVEALYREAFAIDWELDAYRHN ?
False

Same question, SEQ ID NO: 509 (designed binder, D domain, on phage) MGSWYQFKTELAWIKDDLEALGGSEAELAWFEWVIADFEDDLQFYKGKGNPEVEALRKEAAAIRDELQAYRHN this time
True

Repeat with SEQ ID NO: 540 (designed binder, D domain, on phage) MGSWYEFDDRLDAIAYRLNALGGSEAELAWFEWEIAEFELDLQWYKGKGNPEVEALVWEADAIEWELEAYRHN
False

And SEQ ID NO: 490 (designed binder, D domain, on phage) MGSWYDFKYDLAEIKMDLEALGGSEAELAQFEFDIAFFEEELQDYKGKGNPEVEALRKEAAAIRDELQAYRHN ?
False
